measurement.notes: Quantitative High-Throughput drug screen in 47 multiple myeloma cell lines against the NCATS MIPE library collection: ARP1_JJKsccF8 cell viability assay (AID 1918928; further: nearly all actives have a fitted effect of over 40% in size;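 on viability: 100% = DMSO only wells and 0% = medium only wells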)
condition.parameters: ARP1 myeloma cells viability, CellTiter-Glo ATP, 48 h; series mostly up to 45.8 µM
Records with an inconclusive call do not appear. Activity calls are given as the source filed them. The call rests on the fitted dose curve; in most records, active means well fitted cell-killing curve with a large enough effect; inconclusive means small, poorly fitted or top-dose-only effect, or effect the other way; inactive means no such curve, though single readings can be large or run the other way.
Possible outcomes: 1 (yes) = active, 0 (no) = inactive

- COc1ccc(-c2oc3c(CC=C(C)C)c(OC4O[C@H](CO)[C@@H](O)[C@H](O)[C@@H]4O)cc(O)c3c(=O)c2OC2O[C@@H](C)[C@H](O)[C@@H](O)[C@@H]2O)cc1 (some centres undefined): 1 (yes)
- Cc1nnc(C(C)C)n1C1C[C@H]2CC[C@@H](C1)N2CC[C@H](NC(=O)C1CCC(F)(F)CC1)c1ccccc1 (some centres undefined): 0 (no)
- COc1cc2ncnc(Nc3ccc(F)c(Cl)c3)c2cc1OCCCN1CCOCC1: 1 (yes)
- c1ccc2c(Cc3c[nH]c4ccccc34)c[nH]c2c1: 1 (yes)
- Cc1ccc(C(=O)Nc2cccc(C(F)(F)F)c2)cc1Nc1nc(-c2cccnc2)nc2c1cnn2C: 1 (yes)
- CON=C(C(=O)N[C@@H]1C(=O)N2C(C(=O)OCOC(=O)C(C)(C)C)=C(C=Cc3scnc3C)CS[C@H]12)c1csc(N)n1: 0 (no)
- COc1cc(O)c2c(c1)C(=O)c1cc(C)cc(O)c1C2=O: 0 (no)
- CCOc1ccc(Nc2nc(-c3c(C)nc4ccccn34)cs2)cc1: 1 (yes)
- Nc1ncnc2ccccc12: 0 (no)
- CC=CC(=O)N(CC)c1ccccc1C: 1 (yes)
- N[C@@]1(C(=O)O)CS(=O)(=O)[C@H]2[C@H](C(=O)O)[C@H]21: 0 (no)
- CC(C)C[C@H](CC(=O)O)C(=O)N[C@@H](Cc1c[nH]c2ccccc12)C(=O)N[C@@H](C)c1ccccc1: 0 (no)
- Nc1ncnc2c1nc(Cl)n2[C@@H]1O[C@H](CO)[C@@H](O)[C@@H]1O: 1 (yes)
- O=c1c(-c2ccc(O)cc2)coc2cc(OC3O[C@H](CO)[C@H](O)[C@H](O)[C@H]3O)cc(O)c12 (some centres undefined): 1 (yes)
- CC[C@H]1OC(=O)[C@H](C)[C@@H](O[C@H]2C[C@@](C)(OC)[C@@H](O)[C@H](C)O2)[C@H](C)[C@@H](O[C@@H]2O[C@H](C)C[C@H](N(C)C)[C@@H]2O)[C@](C)(O)C[C@@H](C)CN(C)[C@H](C)[C@@H](O)[C@]1(C)O: 0 (no)
- COc1cc(NC(=O)c2ccc(-c3ccc(Cl)cc3)o2)cc(OC)c1: 0 (no)
- O=C(NC1CCOCC1)c1ccc(-c2cc(-c3cn[nH]c3-c3ccccn3)ccn2)cc1: 0 (no)
- O=c1[nH]cnc2c1ncn2[C@H]1CC[C@@H](CO)O1: 0 (no)
- CCC(CC)[C@H](NC(C)=O)[C@@H]1[C@H](O)[C@@H](C(=O)O)C[C@@H]1N=C(N)N: 0 (no)
- C[C@H](NC(=O)C(=O)Nc1ccccc1C(C)(C)C)C(=O)N[C@@H](CC(=O)O)C(=O)COc1c(F)c(F)cc(F)c1F: 1 (yes)
- COc1cccc([C@@H](C)NCCCc2ccccc2Cl)c1: 0 (no)
- COC[C@@H](c1ccc(C(F)(F)F)cc1)N1CCN(C2(C)CCN(C(=O)c3c(C)ncnc3C)CC2)C[C@H]1C: 0 (no)
- COCCOc1nc(-c2ccc(Cl)c(Cl)c2)n(-c2ccc(NC(=O)CCl)cc2)n1: 1 (yes)
- Oc1ccc(C2=Cc3ccc(O)cc3OC2)cc1: 1 (yes)
- COc1ccc(-c2nc(N3CCOCC3)c3sc(CN(C)c4ncc(C(=O)NO)cn4)cc3n2)cn1: 0 (no)
- CC=CC[C@@H](C)C(=O)[C@H]1C(=O)N[C@@H](C(C)C)C(=O)N(C)CC(=O)N(C)[C@@H](CC(C)C)C(=O)N[C@@H](C(C)C)C(=O)N(C)[C@@H](CC(C)C)C(=O)N[C@@H](C)C(=O)N[C@H](C)C(=O)N(C)[C@@H](CC(C)C)C(=O)N(C)[C@@H](CC(C)C)C(=O)N(C)[C@@H](C(C)C)C(=O)N1C: 1 (yes)
- CC#CCn1c(N2CCC[C@@H](N)C2)nc2c1c(=O)n(Cc1nc(C)c3ccccc3n1)c(=O)n2C: 1 (yes)
- C[C@]12CC[C@@H]3c4ccc(O)cc4CC[C@H]3[C@H]1C[C@@H](O)[C@H]2O: 1 (yes)
- CC(C)(C)c1cc(C(=O)O)c(NC(=O)Nc2ccc3[nH]ncc3c2)s1: 0 (no)
